Reference source for all entries: patent US20170145113A1

- system.under.test: T1, His-tagged human HtrA1 protease domain (human, UniProt Q92743 161-367)
- T1 construct: His-tagged protease domain; also called huHtrA1-PD-His; huHtrA1-PD
- test.name: SPR (BIACORE T200), huHtrA1-PD-His captured by anti-His, Fab injected
quantity: koff (s⁻¹)
Return type: number; implicit unit s⁻¹.

>>> result_number("combination mutant LC5.HC3 Fab (Fab, V domains shown, Fab) VH: EVQLVQSGAEVKKPGASVKVSCKASGYKFTDSEMHWVRQAPGQGLEWIGGVDPETDGAAYNQKFKGRATITRDTSTSTAYLELSSLRSEDTAVYYCTRGYDYDYALDYWGQGTLVTVSS VL: DIQMTQSPSSLSASVGDRVTITCRASSSVNFIHWYQQKPGKAPKPLISATSELASGVPSRFSGSGSGTDFTLTISSLQPEDFATYYCQQWSSNPWTFGQGTKVEIK")
0.000251
>>> result_number("h15H6.v2 Fab (Fab, V domains shown, Tested as Fab; also called parent; parental Fab) VH: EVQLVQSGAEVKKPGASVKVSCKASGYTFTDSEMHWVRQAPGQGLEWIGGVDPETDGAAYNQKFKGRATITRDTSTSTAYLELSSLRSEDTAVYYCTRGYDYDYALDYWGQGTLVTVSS VL: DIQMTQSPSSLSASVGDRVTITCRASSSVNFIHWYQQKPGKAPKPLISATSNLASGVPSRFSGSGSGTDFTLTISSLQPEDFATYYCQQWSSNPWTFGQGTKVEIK")
0.000158

// returns reported koff for input combination mutant LC3.HC2 Fab (Fab, V domains shown, Fab) VH: EVQLVQSGAEVKKPGASVKVSCKASGYTFRDSEMHWVRQAPGQGLEWIGGVDPETDGAAYNQKFKGRATITRDTSTSTAYLELSSLRSEDTAVYYCTRGYDYDYALDYWGQGTLVTVSS VL: DIQMTQSPSSLSASVGDRVTITCRASSSVEFIHWYQQKPGKAPKPLISATSNLASGVPSRFSGSGSGTDFTLTISSLQPEDFATYYCQQWSSNPWTFGQGTKVEIK
0.000109
